Quick list: IC50 (neutralization) per entry.
Experimental system: T1, LASV Josiah (lineage IV) glycoprotein, full-length GP (Lassa virus, Josiah strain, UniProt P08669 2-491)
T1 sequence: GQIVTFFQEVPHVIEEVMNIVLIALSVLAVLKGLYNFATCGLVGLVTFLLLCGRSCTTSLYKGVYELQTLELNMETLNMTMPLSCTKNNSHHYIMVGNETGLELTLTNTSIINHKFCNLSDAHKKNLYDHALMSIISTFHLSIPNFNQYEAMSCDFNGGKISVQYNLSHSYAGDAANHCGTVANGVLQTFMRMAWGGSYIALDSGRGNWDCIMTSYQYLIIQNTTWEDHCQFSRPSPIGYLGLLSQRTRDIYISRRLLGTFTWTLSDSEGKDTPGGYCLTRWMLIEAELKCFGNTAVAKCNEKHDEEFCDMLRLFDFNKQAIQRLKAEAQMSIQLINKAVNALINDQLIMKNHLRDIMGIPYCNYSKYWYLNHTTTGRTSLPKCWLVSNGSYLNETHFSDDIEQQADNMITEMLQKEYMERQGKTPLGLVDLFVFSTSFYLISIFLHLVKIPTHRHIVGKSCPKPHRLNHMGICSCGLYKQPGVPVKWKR
Assay comment: cell-based or functional assay
Report the figure in µg/mL without appending any unit label.

Binder	Endpoint value
9.8A (antibody, V domains shown) VH: EVQLVQSGGRLVQPGGSLRLSCVASGFTFSSHAMSWVRQAPGKGLEWVSGFSGSSGTTKYADSVKGRFTISRDNSKKTLYLQMNSLRAEDTAVYYCAKGFSPFRGVQFPYFDYWGQGTLVTVSS VL: DIVMTQSPSTLSASVGDRVTITCRASQSIDRWLAWYQQKPGKAPKLLIYQASSLERGVPSRFSGSGSGTEFTLTISSLQPDDFATYYCQQYNGYPLTFGGGTKVEIKR	1.31

For the binder 37.2G (antibody, V domains shown) VH: EVQLVESGGGLVKPGGSRRLSCAASGFTFSRDTMTWVRQAPGKGLEWVASISSGSSDINYADSVKGRFTISRDNGKNSLYLHMNSLRADDTAIYYCARDPRSGISGRYGMDVWGQGTTVTVSS VL: DIVLTQSPGTLSLSPGERATLSCRASQSVNSIFLAWYQQKPGQAPRLLIYGASSRATGIPDRFSGSGSGTDFTLTISRLEPEDFAVYYCQQYHSSPKLTFGGGTKVEIKR , give its measured IC50 (neutralization) value.
5.6
